Test: xn = mol fraction of the nth substance listed
Conditions: 318.15 K; 100 kPa; Liquid; Concentric cylinders viscometry; x1 = 0.9
The molecules listed here are annotated with their viscosity.
Please give a number only; it is taken to be in mPa·s.

Answered cases to consult:
Molecule | viscosity (mPa·s)
CN1CCC[C@H]1c1cccnc1 [(-)-3-(N-methylpyrrolidino)pyridine] + OCCCO | 3.18
CN1CCC[C@H]1c1cccnc1 [(-)-3-(N-methylpyrrolidino)pyridine] + CCC(C)O | 2.419
CN1CCC[C@H]1c1cccnc1 [(-)-3-(N-methylpyrrolidino)pyridine] + CC(O)CO | 3.094

Let us examine a further case.
Endpoint output: viscosity of CN1CCC[C@H]1c1cccnc1 [(-)-3-(N-methylpyrrolidino)pyridine] + CCCCO . Value?
2.367

###

Assay: xn = mol fraction of the nth substance listed
Conditions: 298.15 K; 100 kPa; Liquid; Concentric cylinders viscometry; x1 = 0.5
Property Name: viscosity (mPa·s)
Please give a number only; it is taken to be in mPa·s.

Answered cases to consult:
Compound | Property Name | Recorded Number
CN1CCC[C@H]1c1cccnc1 [(-)-3-(N-methylpyrrolidino)pyridine] + CCCCO | viscosity | 3.337
CN1CCC[C@H]1c1cccnc1 [(-)-3-(N-methylpyrrolidino)pyridine] + CC(O)CO | viscosity | 19.6
CN1CCC[C@H]1c1cccnc1 [(-)-3-(N-methylpyrrolidino)pyridine] + OCCCO | viscosity | 25.35

Let us examine a further case.
Endpoint output: viscosity of CN1CCC[C@H]1c1cccnc1 [(-)-3-(N-methylpyrrolidino)pyridine] + CCC(C)O . Value?
3.566

###

Experiment: refractive index (Na D-line) (dimensionless); xn = mol fraction of the nth substance listed
Details: 303.15 K; 100 kPa; Liquid; Standard Abbe refractometry; x1 = 0.9
± gives the expanded uncertainty stated by the source.
Property Name: refractive index

Answered cases to consult:
Compound | refractive index
CN1CCC[C@H]1c1cccnc1 [(-)-3-(N-methylpyrrolidino)pyridine] + CCCCO | 1.51463 ± 0.0004
CN1CCC[C@H]1c1cccnc1 [(-)-3-(N-methylpyrrolidino)pyridine] + CC(O)CO | 1.51749 ± 0.0004

Endpoint output: refractive index of CN1CCC[C@H]1c1cccnc1 [(-)-3-(N-methylpyrrolidino)pyridine] + OCCCO . Value?
1.51845 ± 0.00041

Endpoint output: refractive index of CN1CCC[C@H]1c1cccnc1 [(-)-3-(N-methylpyrrolidino)pyridine] + CCC(C)O . Value?
1.5141 ± 0.0004

###

Assay: xn = mol fraction of the nth substance listed
Conditions: 313.15 K; 100 kPa; Liquid; Concentric cylinders viscometry; x1 = 0.9
Property Name: viscosity (mPa·s)
Please give a number only; it is taken to be in mPa·s.

Answered cases to consult:
Molecule | Recorded Number
CN1CCC[C@H]1c1cccnc1 [(-)-3-(N-methylpyrrolidino)pyridine] + CCCCO | 2.686
CN1CCC[C@H]1c1cccnc1 [(-)-3-(N-methylpyrrolidino)pyridine] + OCCCO | 3.625
CN1CCC[C@H]1c1cccnc1 [(-)-3-(N-methylpyrrolidino)pyridine] + CC(O)CO | 3.532

Let us examine a further case.
Endpoint output: viscosity of CN1CCC[C@H]1c1cccnc1 [(-)-3-(N-methylpyrrolidino)pyridine] + CCC(C)O . Value?
2.761

Attribution: the NIST ThermoML archive (doi:10.1016/j.jct.2016.07.005)
